Readings of switch fluorescence ratio for the listed sequences
tested on: ATP; experiment: switch fluorescence ratio, 500 uM ATP over buffer (Cy3 cluster intensity, sum of 5 cycles each) (fold (ratio)); higher = stronger signal-on switching upon ATP binding; sequences stand for … in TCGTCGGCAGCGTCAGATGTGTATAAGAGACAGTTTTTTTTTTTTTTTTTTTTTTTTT…TC; conditions: aptamer strand: ATP DNA aptamer (quencher-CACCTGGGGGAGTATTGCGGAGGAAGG + anchor), 100 nM annealed; ATP concentration: 500 uM;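 note: ATP exposure 15 min at 22 °C before imaging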
Provide a numeric answer; units are not to be included.

>>> df
   query_sequence               readout_kind  recorded_number
0      TATACAGAGG  switch fluorescence ratio            0.983
1      TTCGCGGGTG  switch fluorescence ratio             1.05
2      TAGAGAGCCA  switch fluorescence ratio             1.03
3      GTTGATTAGC  switch fluorescence ratio            0.981
4      ATTAACCATT  switch fluorescence ratio             1.01
5      CGAGAGGAGT  switch fluorescence ratio            0.997
6      TTTCAAGTGG  switch fluorescence ratio             1.01
7      ATTGGGGGTG  switch fluorescence ratio             1.04
8      AAAAAGGTTT  switch fluorescence ratio            0.978
9      AAACTTATAA  switch fluorescence ratio            0.991

Query: // lookup switch fluorescence ratio for ATCCGAGCAT
Response: 4.65

Query: For the sequence CCTTCGTTGT , what switch fluorescence ratio is on record?
Response: 2.85
